Target: Carbonic anhydrase 2 (Bos taurus, UniProt P00921)
Sequence (P00921 whole entry): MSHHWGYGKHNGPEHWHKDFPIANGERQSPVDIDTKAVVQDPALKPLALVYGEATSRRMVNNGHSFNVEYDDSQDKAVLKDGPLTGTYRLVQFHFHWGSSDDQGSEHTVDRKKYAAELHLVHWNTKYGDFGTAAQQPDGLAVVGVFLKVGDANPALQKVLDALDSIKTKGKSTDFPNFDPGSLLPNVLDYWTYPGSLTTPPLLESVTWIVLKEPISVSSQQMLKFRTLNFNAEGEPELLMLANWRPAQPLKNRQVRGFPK
Test: SPR biosensor assay Biacore T100
Conditions: pH 7.4, read-out: kon (M-1-s-1); 25 °C
measurementKind: kon (M⁻¹ s⁻¹)

# molecule, kon / M⁻¹ s⁻¹
measured = [
    ("CCCn1c(=O)[nH]c2cc(S(N)(=O)=O)ccc21", 93500),
]

1: NS(=O)(=O)c1cc(Cl)cc(Cl)c1 [3,5-dichlorobenzene-1-sulfonamide]
2: NS(=O)(=O)c1ccc(F)cc1F [2,4-difluorobenzene-1-sulfonamide]
3: Nc1nc2ccc(S(N)(=O)=O)cc2s1 [2-amino-1,3-benzothiazole-6-sulfonamide]
4: O=C1NNS(=O)(=O)c2ccccc21
Asked: Sort (4 molecules) by kon: min first. Please reply with the labels ordered as requested. Many thanks.
Given back: 3, 2, 1, 4
(3: 19600 M⁻¹ s⁻¹, 2: 107000 M⁻¹ s⁻¹, 1: 259000 M⁻¹ s⁻¹, 4: 1.94e+06 M⁻¹ s⁻¹)
